B1: C1orf55 (parent)
chain: FTSPDYQQQCHEMAERLEDSVLKG

Variants of: B1
Experiment: protein stability index of a GFP-peptide fusion (GPS, HEK-293T) (PSI 1-6); higher = more stable;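 note: lentivirally expressed fusions sorted by FACS into six bins by GFP to DsRed ratio, PSI derived from sequencing read proportions per bin multiplied by bin number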
Conditions: c terminus: a fixed tail appended
Is protein stability index at least 2? Then True. If not, False.

Query: Determine whether measured protein stability index meets or exceeds 2 for `C10L`
Response: True

Query: Determine whether measured protein stability index meets or exceeds 2 for `H11V`
Response: True

Query: Determine whether measured protein stability index meets or exceeds 2 for `L17I`
Response: True

Query: Determine whether measured protein stability index meets or exceeds 2 for `Q9S`
Response: False

Query: Determine whether measured protein stability index meets or exceeds 2 for `Y6R`
Response: True

Query: Determine whether measured protein stability index meets or exceeds 2 for `H11S`
Response: True

Query: Determine whether measured protein stability index meets or exceeds 2 for `E12F`
Response: True

Query: Determine whether measured protein stability index meets or exceeds 2 for `Q8C`
Response: False

Query: Determine whether measured protein stability index meets or exceeds 2 for `L22M`
Response: True

Query: Determine whether measured protein stability index meets or exceeds 2 for `S20Q`
Response: True

Query: Determine whether measured protein stability index meets or exceeds 2 for `A14F`
Response: True

Query: Determine whether measured protein stability index meets or exceeds 2 for `H11C`
Response: False

Query: Determine whether measured protein stability index meets or exceeds 2 for `H11I`
Response: True

Query: Determine whether measured protein stability index meets or exceeds 2 for `T2K`
Response: True

Query: Determine whether measured protein stability index meets or exceeds 2 for `C10A`
Response: True

Query: Determine whether measured protein stability index meets or exceeds 2 for `A14T`
Response: True

Query: Determine whether measured protein stability index meets or exceeds 2 for `Q8R`
Response: False

Query: Determine whether measured protein stability index meets or exceeds 2 for `D5N`
Response: True

Query: Determine whether measured protein stability index meets or exceeds 2 for `E15T`
Response: True

Query: Determine whether measured protein stability index meets or exceeds 2 for `R16H`
Response: True

Query: Determine whether measured protein stability index meets or exceeds 2 for `T2C`
Response: False

Query: Determine whether measured protein stability index meets or exceeds 2 for `Q9Y`
Response: True

Query: Determine whether measured protein stability index meets or exceeds 2 for `S20H`
Response: False

Query: Determine whether measured protein stability index meets or exceeds 2 for `D5V`
Response: False

Query: Determine whether measured protein stability index meets or exceeds 2 for `F1G`
Response: True

Query: Determine whether measured protein stability index meets or exceeds 2 for `Y6V`
Response: True

Query: Determine whether measured protein stability index meets or exceeds 2 for `G24L`
Response: False

Query: Determine whether measured protein stability index meets or exceeds 2 for `D19H`
Response: True

Query: Determine whether measured protein stability index meets or exceeds 2 for `E15I`
Response: False

Query: Determine whether measured protein stability index meets or exceeds 2 for `S3G`
Response: False

Query: Determine whether measured protein stability index meets or exceeds 2 for `M13T`
Response: True

Query: Determine whether measured protein stability index meets or exceeds 2 for `S3I`
Response: True

Query: Determine whether measured protein stability index meets or exceeds 2 for `Q7N`
Response: True

Query: Determine whether measured protein stability index meets or exceeds 2 for `D5G`
Response: False

Query: Determine whether measured protein stability index meets or exceeds 2 for `Q9R`
Response: False

Query: Determine whether measured protein stability index meets or exceeds 2 for `E12L`
Response: True

Query: Determine whether measured protein stability index meets or exceeds 2 for `Q8S`
Response: True

Query: Determine whether measured protein stability index meets or exceeds 2 for `Q9M`
Response: True

Query: Determine whether measured protein stability index meets or exceeds 2 for `L22W`
Response: True

// data source = the supplement of paper PMC10567573
